I'd be grateful if you could share measured Plant response rating, Oat, Wild for these entries.
- Tested on: oat, wild
- test-name: Test A preemergence
- Type: in vivo, Avena fatua
- setup-conditions: 500 g ai/ha, 0 to 100 scale (0 no effect, 100 complete control), 10 days
Answers are plain numbers.

See these solved cases before continuing.
• O=C(c1cccc(-n2cncn2)c1)N1CC(C(F)(F)F)Oc2c(Cl)cccc21 (centres unmarked) [Compound 59] = 90
• Cc1cccc2c1O[C@@H](C)CN2C(=O)c1cccc(-n2cncn2)c1F [Compound 53] = 0
• CC(C)Oc1ccc(-n2cnc(C(C)C)n2)cc1C(=O)N1C[C@H](C)Oc2c(Cl)cccc21 [Compound 108] = 30
• Cc1cc(F)cc2c1OC(C)CN2C(=O)c1cccc(-n2cncn2)c1 (centres unmarked) [Compound 44] = 50
• Cc1c(C(=O)N2CC(C)Oc3c(Cl)cccc32)cccc1-n1cncn1 (centres unmarked) [Compound 40] = 0
• Cc1ccc(C(=O)N2CC(C)Oc3c(Cl)cccc32)cc1-n1cncn1 (centres unmarked) [Compound 38] = 60
• Cc1cccc2c1O[C@@H](C)CN2C(=O)c1cccc(-n2cnc(C3CCCCC3)n2)c1 [Compound 82] = 20

q: Find the recorded Plant response rating, Oat, Wild belonging to CCc1ncn(-c2ccc(CC)c(C(=O)N3C[C@H](C)Oc4c(Cl)cccc43)c2)n1 [Compound 95] and report it.
a: 90

Where do the numbers come from? From patent US20260262643A1.
